Target Desc: LftR wildtype (Listeria monocytogenes, UniProt Q8Y923 1-108)
Assay Method Text: fluorescence polarization; FP: 28-mer OP-1 with 5' fluorescein, ex 485 nm / em 535 nm, single-site fit (Prism 5); buffer, salt, pH and temperature of FP and EMSA not given in the material
Condition Set: protein: recombinant; tags: C-terminal His6 (LftRCtH); chain copies: 2; label: 5' fluorescein on top strand
Readout Type: Kd (nM)
One number for each entry, in nM.

# input Need Kd of OP-1 28-mer dsDNA (FP) (dsDNA) DNA 1: GTATTACTATATACTTGTACCTAGTAAC DNA 2: GTTACTAGGTACAAGTATATAGTAATAC , thanks.
# output 6.2
